Would you mind telling me the reported maximum absorption wavelength of each entry?
assay: absorption spectrum (maximum absorption wavelength, molar extinction coefficient); type: physicochemical
Report the value in nm with no unit label.

# input molecule: COc1c(NC(CS)C(=O)O)c2c(=O)cc(OC)c3c4c(OC)cc(=O)c5c(O)c(NC(CS)C(=O)O)c6c(c(c1C(C(C)=O)C(C)=C6)c23)c54 (centres unmarked) [HB-25b] ; wanted: its maximum absorption wavelength
629

# input molecule: COC(=O)C1CCC(CNc2c(NCC3CCC(C(=O)OC)CC3)c3c(=O)cc(OC)c4c5c(OC)cc(=O)c6c(O)c(OC)c7c(c(c2C=C(C)C7C(C)=O)c34)c65)CC1 (centres unmarked) [HB-13a-AcE] ; wanted: its maximum absorption wavelength
625

# input molecule: COCCOCCOCCOCCOCCOCCOCCC(=O)N1CCC(CNc2c(O)c3c(=O)cc(OC)c4c5c(OC)cc(=O)c6c(NCC7CCN(C(=O)CCOCCOCCOCCOCCOCCOCCOC)CC7)c(OC)c7c(c(c2C=C(C)C7C(C)=O)c34)c65)CC1 (centres unmarked) [HB-31b-PEG6] ; wanted: its maximum absorption wavelength
622

# input molecule: COc1c(O)c2c(=O)cc(OC)c3c4c(OC)cc(=O)c5c(NC6CCC(C(=O)O)C6)c(NC6CCC(C(=O)O)C6)c6c(c(c1C(C(C)=O)C(C)=C6)c23)c54 (centres unmarked) [HB-19a] ; wanted: its maximum absorption wavelength
621

# input molecule: CCCCCCNc1c2c3c4c(c(OC)c(=O)c5c(O)cc(OC)c(c6c(OC)cc(NCCCCCC)c(c1=O)c63)c54)CC(C)=C2 [HC-34c] ; wanted: its maximum absorption wavelength
624

----------
assay: absorption spectrum (maximum absorption wavelength, molar extinction coefficient); format: physicochemical
reported_endpoint: maximum absorption wavelength (nm)
Report the value in nm with no unit label.

# input compound: COCCOCCOCCOCCOCCOCCOCCC(=O)OCC1(Nc2c3c4c5c(c(OC)c(=O)c6c(O)cc(OC)c(c7c(OC)cc(NC8(COC(=O)CCOCCOCCOCCOCCOCCOCCOC)CC8)c(c2=O)c74)c65)C(C(C)=O)C(C)=C3)CC1 (stereo not shown) [HB-35c-PEG6] ; wanted: its maximum absorption wavelength
630

# input compound: COc1c2c3c4c(c(NCCC5CCC(O)CC5)c(=O)c5c(NCCC6CCC(O)CC6)cc(OC)c(c6c(OC)cc(O)c(c1=O)c63)c54)C=C(C)C2C(C)=O (stereo not shown) [HB-18c] ; wanted: its maximum absorption wavelength
624

# input compound: COc1c2c3c4c(c(NCC5CCC(C(=O)NCCCCS(=O)(=O)O)CC5)c(=O)c5c(O)cc(OC)c(c6c(OC)cc(NCC7CCC(C(=O)NCCCCS(=O)(=O)O)CC7)c(c1=O)c63)c54)C=C(C)C2 (stereo not shown) [HC-13d-C4-SO3H] ; wanted: its maximum absorption wavelength
624

# input compound: COCCOCCOCCOCCOCCOCCOC(=O)C1CCC(Nc2c3c4c5c(c(OC)c(=O)c6c(NC7CCC(C(=O)OCCOCCOCCOCCOCCOCCOC)C7)cc(OC)c(c7c(OC)cc(O)c(c2=O)c74)c65)C(C(C)=O)C(C)=C3)C1 (stereo not shown) [HB-19d-PEG6] ; wanted: its maximum absorption wavelength
636

# input compound: COCCOCCC(=O)OCCOCCNc1c(NCCOCCOC(=O)CCOCCOC)c2c(=O)cc(OC)c3c4c(OC)cc(=O)c5c(O)c(OC)c6c(c(c1C=C(C)C6)c23)c54 ; wanted: its maximum absorption wavelength
622

# input compound: COCCOCCOCCOCCOCCOCCOCCC(=O)OCCOCCNc1c(O)c2c(=O)cc(OC)c3c4c(OC)cc(=O)c5c(NCCOCCOC(=O)CCOCCOCCOCCOCCOCCOCCOC)c(OC)c6c(c(c1C=C(C)C6C(C)=O)c23)c54 (stereo not shown) ; wanted: its maximum absorption wavelength
622

# input compound: COc1c2c3c4c(c(NCCOCCO)c(=O)c5c(O)cc(OC)c(c6c(OC)cc(NCCOCCO)c(c1=O)c63)c54)C=C(C)C2C(C)=O (stereo not shown) ; wanted: its maximum absorption wavelength
622

# input compound: COCCOC(=O)C1CCC(Nc2c(NC3CCC(C(=O)OCCOC)CC3)c3c(=O)cc(OC)c4c5c(OC)cc(=O)c6c(O)c(OC)c7c(c(c2C=C(C)C7C(C)=O)c34)c65)CC1 (stereo not shown) [HB-14a-PEG1] ; wanted: its maximum absorption wavelength
622

# input compound: COc1c(NC2CCC(C(=O)O)C2)c2c(=O)cc(OC)c3c4c(OC)cc(=O)c5c(O)c(NC6CCC(C(=O)O)C6)c6c(c(c1C(C(C)=O)C(C)=C6)c23)c54 (stereo not shown) [HB-19b] ; wanted: its maximum absorption wavelength
620

# input compound: COc1c(O)c2c(=O)cc(OC)c3c4c(OC)cc(=O)c5c(O)c(OC)c6c(c(c1CC(C)=C6C(C)=O)c23)c54 ; wanted: its maximum absorption wavelength
450

FYI, the data here is from patent US11439707B2.
